Readings of IC50 for the listed compounds
biological target: HDAC11 (Homo sapiens); assay: HDAC biochemical activity measurement (fluorescent substrate deacetylation);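 further: HDAC11 enzyme acting on an acetyl-lysine fluorogenic substrate, then a developer frees the fluorophore, read at excitation 360 nm and emission 460 nm, IC50 over a compound dilution series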
Sequence (Q96DB2 whole entry, species assumed): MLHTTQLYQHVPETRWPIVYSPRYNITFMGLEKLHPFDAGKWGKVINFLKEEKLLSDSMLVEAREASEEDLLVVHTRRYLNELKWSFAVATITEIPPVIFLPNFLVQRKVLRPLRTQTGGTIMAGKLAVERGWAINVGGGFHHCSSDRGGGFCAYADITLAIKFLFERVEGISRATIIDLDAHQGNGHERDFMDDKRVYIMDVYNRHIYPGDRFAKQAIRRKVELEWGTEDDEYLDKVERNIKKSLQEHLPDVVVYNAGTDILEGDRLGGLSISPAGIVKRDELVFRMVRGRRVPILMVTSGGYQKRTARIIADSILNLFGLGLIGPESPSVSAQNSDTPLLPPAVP
Property measured: IC50 (nM)

[[record]]
cpd_smiles = "C/C=C1\\NC(=O)c2nc(ccc2SC)CNC(=O)C[C@@H](/C=C/CCSC(=O)CCCCCCC)OC(=O)[C@H](CC)NC1=O"
result_units = "nM"
observed_measurement = 95

[[record]]
cpd_smiles = "C/C=C1\\NC(=O)c2nc(ccc2F)CNC(=O)C[C@@H](/C=C/CCSC(=O)CCCCCCC)OC(=O)[C@H](C)NC1=O"
result_units = "nM"
observed_measurement = 88

[[record]]
cpd_smiles = "C/C=C1\\NC(=O)c2cccc(n2)NC(=O)C[C@@H](/C=C/CCSC(C)=O)OC(=O)[C@H](C(C)C)NC1=O"
result_units = "nM"
observed_measurement = 97

[[record]]
cpd_smiles = "C/C=C1\\NC(=O)c2ccc(F)c(n2)CNC(=O)C[C@@H](/C=C/CCSC(=O)CCCCCCC)OC(=O)[C@H](C)NC1=O"
result_units = "nM"
observed_measurement = 79

[[record]]
cpd_smiles = "C/C=C1\\NC(=O)c2nc(ccc2F)CNC(=O)C[C@@H](/C=C/CCSC(=O)CCCCCCC)OC(=O)[C@H](CC)NC1=O"
result_units = "nM"
observed_measurement = 99

[[record]]
cpd_smiles = "C/C=C1\\NC(=O)c2nc(ccc2F)CNC(=O)C[C@@H](/C=C/CCSC(=O)CC)OC(=O)[C@H](C(C)C)NC1=O"
result_units = "nM"
observed_measurement = 92

[[record]]
cpd_smiles = "C/C=C1\\NC(=O)c2ccc(F)c(n2)CNC(=O)C[C@@H](/C=C/CCSC(C)=O)OC(=O)[C@H](CCCCN)NC1=O"
result_units = "nM"
observed_measurement = 672

[[record]]
cpd_smiles = "C/C=C1\\NC(=O)c2nc(ccc2SC)CNC(=O)C[C@@H](/C=C/CCSC(=O)CCCCC)OC(=O)[C@H](C(C)C)NC1=O"
result_units = "nM"
observed_measurement = 72

[[record]]
cpd_smiles = "C/C=C1\\NC(=O)c2ccc(F)c(n2)CNC(=O)C[C@@H](/C=C/CCSC(=O)CCCCCCC)OC(=O)[C@H](Cc2ccccc2)NC1=O"
result_units = "nM"
observed_measurement = 96

[[record]]
cpd_smiles = "C/C=C1\\NC(=O)c2cccc(n2)CCNC(=O)C[C@@H](/C=C/CCS)OC(=O)[C@H](C(C)C)NC1=O"
result_units = "nM"
observed_measurement = 97


---

test system: HT1080 (human fibrosarcoma cells); test: MTT cancer cell growth inhibition; type: cell-based; conditions: Homo sapiens, HT-1080, 72 h, MTT, 72 hours incubation; read-out: GI50 HT1
This listing pairs compounds with measured GI50.
Property measured: GI50 (nM)

[[record]]
cpd_smiles = "C/C=C1\\NC(=O)c2cc(F)cc(n2)CNC(=O)C[C@@H](/C=C/CCSC=O)OC(=O)[C@H](C(C)C)NC1=O"
observed_measurement = 90

[[record]]
cpd_smiles = "C/C=C1\\NC(=O)c2cccc(n2)CNC(=O)C[C@@H](/C=C/CCSC(=O)CCC)OC(=O)[C@H](C(C)C)NC1=O"
observed_measurement = 70

[[record]]
cpd_smiles = "C/C=C1\\NC(=O)c2cccc(n2)CNC(=O)C[C@@H](/C=C/CCS)OC(=O)[C@H](CC)NC1=O"
observed_measurement = 40

[[record]]
cpd_smiles = "C/C=C1\\NC(=O)c2ccc(F)c(n2)CNC(=O)C[C@@H](/C=C/CCSC(=O)CCCCC)OC(=O)[C@H](C(C)C)NC1=O"
observed_measurement = 80

[[record]]
cpd_smiles = "C/C=C1\\NC(=O)c2nc(ccc2F)CNC(=O)C[C@@H](/C=C/CCS)OC(=O)[C@H](CC)NC1=O"
observed_measurement = 70

[[record]]
cpd_smiles = "C/C=C1\\NC(=O)c2nc(ccc2F)CNC(=O)C[C@@H](/C=C/CCS)OC(=O)[C@H](CCCCNC(=O)OCC2c3ccccc3-c3ccccc32)NC1=O"
observed_measurement = 10

